# ASSAY PROTOCOL: CTG assay: cytotoxicity in CellTiter-Glo Luminescent Cell Viability Assay
# Assay type: cell-based
# EXPERIMENTAL CONDITIONS: MT4-GFP cells, 10% normal human serum, 48 h incubation
PROPERTY NAME: CC50 at 48 h

MOLECULE	PROPERTY NAME	RESULT
[2H][C@]1(O)C[C@H](n2cnc3c(N)nc(F)nc32)O[C@]1(C#C)CO	CC50 at 48 h	> 42 µM
[2H]C([2H])(O)[C@@]1(C#C)O[C@@H](n2ccc3c(N)nc(Cl)nc32)C[C@@H]1O	CC50 at 48 h	> 42 µM
Cc1cn([C@H]2C[C@H](N=[N+]=[N-])[C@@H](CO)O2)c(=O)[nH]c1=O [AZT, 3′-azido-3′-deoxythymidine, reference compound]	CC50 at 48 h	> 8.4 µM
[2H]C(O)[C@@]1(C#C)O[C@@H](n2cnc3c(N)nc(F)nc32)C[C@@H]1O (some centres unmarked)	CC50 at 48 h	> 42 µM
[2H]C([2H])(O)[C@@]1(C#C)O[C@@H](n2cnc3c(N)nc(F)nc32)C[C@@H]1O	CC50 at 48 h	> 42 µM
[2H][C@]1(O)C[C@H](n2cc(F)c3c(N)ncnc32)O[C@]1(C#C)CO	CC50 at 48 h	31.9 µM

Please state, for each entry, its recorded CC50 at 48 h.
1. [2H]C#C[C@]1(CO)O[C@@H](n2ccc3c(N)nc(Cl)nc32)C[C@@H]1O
2. [2H][C@]1(O)C[C@H](n2ccc3c(N)nc(Cl)nc32)O[C@]1(C#C)CO
3. [2H]C(O)[C@@]1(C#C)O[C@@H](n2ccc3c(N)nc(Cl)nc32)C[C@@H]1O (some centres unmarked)
4. [2H][C@]1(n2cnc3c(N)nc(F)nc32)C[C@H](O)[C@@](C#C)(CO)O1
5. [2H][C@@]1(O)C[C@H](n2ccc3c(N)nc(Cl)nc32)O[C@]1(C#C)CO

["> 42 µM", "> 42 µM", "> 42 µM", "> 42 µM", "> 42 µM"]
